protocol: Growth inhibition of human SKHep cells after 48 hrs by MTT assay in presence of 10% FBS supplemented DMEM medium
Assay type: functional
test readout: GI50 (µM)
Report the figure in µM without appending any unit label.

# count of solved cases: 2
compound: Oc1c(CN2CCCCC2)ccc2cccnc12
measured result: 16.6
//
compound: O=S(=O)(c1ccccc1)N1CCN(Cc2ccc3cccnc3c2O)CC1
measured result: 14.6

INPUT: If you can, please state the reported GI50 value of Cc1ccc(S(=O)(=O)N2CCN(Cc3cc([N+](=O)[O-])c4cccnc4c3O)CC2)cc1 .
OUTPUT: 14.6

INPUT: Suppose we examine the compound CCN(CC)CCCC(C)Nc1ccnc2cc(Cl)ccc12 (centres undefined) [CHLOROQUINE] ; what GI50 value has been reported?
OUTPUT: 9.5

// data source = ChEMBL document CHEMBL1152609
